procedure-details: Stability of analytes in rat plasma QC samples under processing and storage conditions
Type: in vitro ADME
reported-conditions: rat plasma, spiked 250 ng/mL, n = 6
measurement-type: Measured concentration, room temperature for 4h (ng/mL)

Give its Measured concentration, room temperature for 4h value. Item: O=c1cc(-c2ccc(O)cc2)oc2cc(O)cc(O)c12
249.3

Give its Measured concentration, room temperature for 4h value. Item: C[C@@H]1O[C@@H](Oc2c(-c3ccc(O)c(O)c3)oc3cc(O)cc(O)c3c2=O)[C@H](O)[C@H](O)[C@H]1O
252.5

Give its Measured concentration, room temperature for 4h value. Item: O=c1c(O[C@@H]2O[C@H](CO)[C@H](O)[C@H](O)[C@H]2O)c(-c2ccc(O)c(O)c2)oc2cc(O)cc(O)c12 [Hyperoside]
244.4

Give its Measured concentration, room temperature for 4h value. Item: COc1cc(-c2oc3cc(O)cc(O)c3c(=O)c2O[C@@H]2O[C@H](CO)[C@@H](O)[C@H](O)[C@H]2O)ccc1O [Isorhamnetin-3-O-glucoside]
259.9

Give its Measured concentration, room temperature for 4h value. Item: O=C(/C=C/c1ccc(O)c(O)c1)O[C@@H]1C[C@](O)(C(=O)O)C[C@@H](O)[C@H]1O
258.4

Give its Measured concentration, room temperature for 4h value. Item: O=C(O)/C=C/c1ccc(O)c(O)c1
272.5

Give its Measured concentration, room temperature for 4h value. Item: O=C(/C=C/c1ccc(O)c(O)c1)O[C@H]1[C@H](O)C[C@](O)(C(=O)O)C[C@H]1O
260.4

Give its Measured concentration, room temperature for 4h value. Item: O=c1cc(-c2ccc(O)c(O)c2)oc2cc(O)cc(O)c12
256.7

Give its Measured concentration, room temperature for 4h value. Item: O=c1c(O)c(-c2ccc(O)c(O)c2)oc2cc(O)cc(O)c12
254.9

Give its Measured concentration, room temperature for 4h value. Item: O=c1c(O[C@@H]2O[C@H](CO)[C@@H](O)[C@H](O)[C@H]2O)c(-c2ccc(O)cc2)oc2cc(O)cc(O)c12
248.1

Give its Measured concentration, room temperature for 4h value. Item: O=c1c(O)c(-c2ccc(O)cc2)oc2cc(O)cc(O)c12
247.5

* * *

procedure-details: Pharmacokinetic study in rats after oral administration of Semen Cuscutae extract (HPLC-MS/MS of plasma)
Assay type: in vivo, Sprague–Dawley rats
reported-conditions: rat plasma, oral Semen Cuscutae extract 13 g/kg, n = 6
measurement-type: t 1/2 (h)

Use these answered entries as a reference point.
Give its t 1/2 value. Item: O=C(O)/C=C/c1ccc(O)c(O)c1
11.60

Give its t 1/2 value. Item: COc1cc(-c2oc3cc(O)cc(O)c3c(=O)c2O[C@@H]2O[C@H](CO)[C@@H](O)[C@H](O)[C@H]2O)ccc1O [Isorhamnetin-3-O-glucoside]
1.23

Give its t 1/2 value. Item: C[C@@H]1O[C@@H](OC[C@H]2O[C@@H](Oc3c(-c4ccc(O)c(O)c4)oc4cc(O)cc(O)c4c3=O)[C@H](O)[C@@H](O)[C@@H]2O)[C@H](O)[C@H](O)[C@H]1O
7.70

Give its t 1/2 value. Item: O=c1c(O[C@@H]2O[C@H](CO)[C@H](O)[C@H](O)[C@H]2O)c(-c2ccc(O)c(O)c2)oc2cc(O)cc(O)c12 [Hyperoside]
0.36

[P] O=c1c(O[C@@H]2O[C@H](CO)[C@@H](O)[C@H](O)[C@H]2O)c(-c2ccc(O)cc2)oc2cc(O)cc(O)c12
[Q] O=C(/C=C/c1ccc(O)c(O)c1)O[C@@H]1C[C@](O)(C(=O)O)C[C@@H](O)[C@H]1O
Between P and Q , whose recorded t 1/2 is greater? Write down the label attached to your selection.
Q
(Q: 1.02 h, P: 0.45 h)
